system: XF498; assay: NCI tumour cell line growth inhibition, 48 h
Calls of active or inactive are those of the source. No stated cut-off is given here; in the data, active = GI50 up to about 1.1 µM and inactive = higher.
Classes used: active, inactive

{"columns": ["MOLECULE", "SYSTEM NAME", "DISCRETE LABEL"],
 "data": [
  ["NNC(=S)N/N=C(/C(=O)Nc1ccc([N+](=O)[O-])cc1)c1nc2ccc([N+](=O)[O-])cc2nc1O", "XF498", "inactive"],
  ["[N-]=[N+]=CC(=O)OCC(N)C(=O)O (stereo not drawn)", "XF498", "inactive"],
  ["N#CCCN(c1ccc(-c2nnc(NC(=O)CNNC(=O)CC(=O)Nc3ccccc3)s2)cc1)S(=O)(=O)c1ccccc1", "XF498", "inactive"],
  ["O=C(Nc1cccc(C(F)(F)F)c1)C(=O)C(C(=O)c1ccc(Cl)c(Cl)c1)C1OC(=O)c2ccccc21 (stereo not drawn)", "XF498", "inactive"],
  ["O=C1CC(c2c[nH]c3ccccc23)C(=O)N1c1ccccc1 (stereo not drawn)", "XF498", "inactive"],
  ["Cc1cc(Br)cc(C)c1NC(=O)C(=O)C(C(=O)c1ccc2ccccc2c1)C1OC(=O)c2ccccc21 (stereo not drawn)", "XF498", "inactive"],
  ["CCCCCCCCNC(=O)SCCCC", "XF498", "inactive"],
  ["COc1cccc(C2CC23C(=O)NC(=O)NC3=O)c1 (stereo not drawn)", "XF498", "inactive"],
  ["O=C1NC2(O)c3ccccc3C(=O)C2(O)N1c1ccccc1 (stereo not drawn)", "XF498", "inactive"],
  ["O=C(O)CCCCCO", "XF498", "inactive"],
  ["C[N+](C)(Cc1ccc(NC(=O)CCCC(=O)ON2C(=O)CCC2=O)cc1)c1ccccc1", "XF498", "active"],
  ["Nc1nc(Cl)cc(NCCCCCCCCCCCCNc2cc(Cl)nc(N)n2)n1", "XF498", "active"],
  ["O=C(O)c1cc2c3c(c1)[C@H]1C=CC[C@H]1CN3CC1CC=CC21 (stereo partly drawn)", "XF498", "inactive"],
  ["O=C(CCC(=O)Nc1ccccc1C(F)(F)F)N/N=C1\\C(=N\\NC(=O)CCC(=O)Nc2ccccc2C(F)(F)F)C(c2ccc3c(c2)OCO3)Oc2ccccc21 (stereo not drawn)", "XF498", "inactive"],
  ["COc1ccc(/C=C2\\C(=O)N(C(=O)Cc3ccccc3)N=C2C)cc1OC", "XF498", "inactive"],
  ["Nc1ncn([C@@H]2C=C(CO)C(O)C2O)c(=O)n1 (stereo partly drawn)", "XF498", "inactive"],
  ["CCCCCC/C(CC(=O)CCC(=O)NCCc1ccccc1)=N\\NC(=O)c1ccc2ccccc2c1O", "XF498", "inactive"],
  ["CCCCC(C)C1CCC2(C)C=CC(=O)C(C)=C2C1O (stereo not drawn)", "XF498", "inactive"]
]}

----------
system: A549; experiment: NCI tumour cell line growth inhibition, 48 h
The source made the active and inactive calls. No stated cut-off is given here; in the data, active = GI50 up to about 1.1 µM and inactive = higher.
Classes used: active, inactive

{"columns": ["COMPOUND", "SYSTEM NAME", "DISCRETE LABEL"],
 "data": [
  ["CCCCC(C)C1CCC2(C)C=CC(=O)C(C)=C2C1O (stereo unspecified)", "A549", "inactive"],
  ["COc1ccc(/C=C2\\C(=O)N(C(=O)Cc3ccccc3)N=C2C)cc1OC", "A549", "inactive"],
  ["O=C(O)C1CCCCC1c1c2ccc(=O)cc-2oc2cc(O)ccc12 (stereo unspecified)", "A549", "inactive"],
  ["CC1CNC(NS(=O)(=O)c2cc(C(=O)Nc3ccc(F)cc3)c(Cl)cc2S)=NN1 (stereo unspecified)", "A549", "inactive"],
  ["COc1ccc2[nH]c3ccc4cc[n+](CCN5CCC(C6CCN(CC[n+]7ccc8ccc9[nH]c%10ccc(OC)cc%10c9c8c7)CC6)CC5)cc4c3c2c1", "A549", "active"],
  ["CCCCc1c(O)nc(Nc2nc3ccccc3[nH]2)[nH]c1=O", "A549", "inactive"],
  ["CCOC(=O)[C@H]1Nc2c(cccc2[N+](=O)[O-])C2c3ccccc3CC21 (stereo partly specified)", "A549", "inactive"],
  ["O=C(c1ccc(O)cc1)C1c2c3c(cc(O)c2C(c2ccc(O)cc2)C1c1cc(O)cc(O)c1)OC(c1ccc(O)cc1)C3c1cc2c(cc1O)OC(c1ccc(O)cc1)C2c1cc(O)cc(O)c1 (stereo unspecified)", "A549", "inactive"],
  ["CCOC(=O)C(NC(=O)Nc1ccc(Cl)cc1)(OC)C(F)(F)F (stereo unspecified)", "A549", "inactive"],
  ["C#Cc1c(C)c(/C=C/C(C)=C\\C(=O)OC)n(C)c1C", "A549", "inactive"],
  ["Cc1n[nH]c(=O)n1N1C(=O)CCCC1=O", "A549", "inactive"],
  ["O=[PH]1c2ccccc2Nc2ccccc21", "A549", "inactive"],
  ["Cc1c2ccnc(-c3ccccc3)c2cc2c1[nH]c1ccccc12", "A549", "inactive"],
  ["CCOC(=O)c1[nH]c2nc(SC)nc(Nc3ccccc3Cl)c2c1N", "A549", "inactive"],
  ["CC1(C)Oc2ccc3c(=O)c(-c4ccccc4)c(-c4ccccc4)oc3c2C1C(=O)O (stereo unspecified)", "A549", "inactive"],
  ["CCO/C=N\\C1=C(C#N)SC2=N/C(=C\\c3ccco3)C(=O)N21", "A549", "inactive"],
  ["CC/C(Cl)=N\\OC(=O)Nc1ccccc1OC(F)(F)F", "A549", "inactive"],
  ["O=[N+]([O-])c1ccc(N2N=C(c3c(O)ccc4ccccc34)CC2c2ccc(Cl)cc2)c([N+](=O)[O-])c1 (stereo unspecified)", "A549", "inactive"],
  ["CON(C)C(=O)CNC(=O)OCC1c2ccccc2-c2ccccc21", "A549", "inactive"],
  ["Nc1nc(Nc2ccc(Cl)cc2)sc1C(=O)c1c[nH]c2ccccc12", "A549", "inactive"],
  ["C[N+](C)(Cc1ccc(NC(=O)CCCC(=O)ON2C(=O)CCC2=O)cc1)c1ccccc1", "A549", "active"]
]}

Reference source for all entries: ChEMBL document CHEMBL1201862
